# ASSAY TARGET: hMAO-B (Homo sapiens)
# Construct: recombinant hMAO-B
# Sequence (P27338 2-520): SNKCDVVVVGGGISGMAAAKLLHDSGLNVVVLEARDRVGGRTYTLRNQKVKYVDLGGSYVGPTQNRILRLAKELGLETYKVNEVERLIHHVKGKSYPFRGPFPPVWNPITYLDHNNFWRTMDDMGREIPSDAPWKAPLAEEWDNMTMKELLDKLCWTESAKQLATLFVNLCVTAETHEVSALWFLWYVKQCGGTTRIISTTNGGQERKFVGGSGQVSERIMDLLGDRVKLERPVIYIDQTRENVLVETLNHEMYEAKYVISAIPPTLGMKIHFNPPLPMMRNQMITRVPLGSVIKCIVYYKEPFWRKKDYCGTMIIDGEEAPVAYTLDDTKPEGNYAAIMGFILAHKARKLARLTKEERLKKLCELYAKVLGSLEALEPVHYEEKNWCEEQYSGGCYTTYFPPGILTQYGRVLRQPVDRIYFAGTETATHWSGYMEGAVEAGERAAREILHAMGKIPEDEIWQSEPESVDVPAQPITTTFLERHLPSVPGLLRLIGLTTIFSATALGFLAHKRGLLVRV
# EXPERIMENT DESCRIPTION: Amplex Red MAO fluorimetric assay, recombinant enzyme, p-tyramine substrate
PROPERTY MEASURED: pIC50
Notebook: values listed as pIC50 are -log10 of the concentration (mol/L).

Data request: Bench note: what pIC50 did O=C(/C=C(O)/C=C/c1cc(O)c(O)cc1O)/C=C/c1cc2cc(O)c(O)cc2oc1=O [compound 16] show?
Data returned: 4.58
